Biological target: DRB1*1101 (Homo sapiens, UniProt P01903+P01911, A100R/A169T/A87E/I96F/K41T/L162R/M171V/P40S/Q125H/Q178H/Q39Y/Q99D/R42S/S66Y/T262R/V115G/W38E)
Assay: Peptide-competition assay with biotinylated CLIP peptide (ELISA)
Format: binding
Design: key: −: no binding/T cell response; +/−: weak binding/T cell response; +: intermediate binding/T cell response; ++: strong binding/T cell response
Details: longer peptides no. 1500-1505, peptide-competition assay
MEASURE NAME: Binding to DRB1*1101

* YRHTWDRHDEGAAQGDDDVW [Peptide 1503] | −
* LLQRGPQYSEHPTFTSQYRIQG [Peptide 1502] | ++
* QWKEPDVYYTSAFVFPTKDVALR [Peptide 1501] | +/−
* TSGVMTRGRLKAESTVAPEEDTDE [Peptide 1504] | +
* QGQNLKYQEFFWDANDIYRIF [Peptide 1505] | −
* PSLILVSQYTPDSTPCHRGDNQLQVQHTR [Peptide 1500] | −
